TARGET_OF_ASSAY: LSD1 (lysine-specific histone demethylase 1A, KDM1A) (Homo sapiens)
Construct: recombinant human LSD1 (BPS#50103)
ASSAY_COMMENT: AlphaScreen demethylase assay with biotinylated histone H3 peptide substrate and purified recombinant LSD1
MEASUREMENT_KIND: IC50

Exercise: Find the recorded IC50 belonging to C/C=C(/C=O)[C@@H](CC=O)CC(=O)OCCc1ccc(O)c(O)c1 [oleacein] and report it.
Solution: ~2500 nM
